Numbers sourced from patent US20250000991A1.

Molecular target: T1, human nectin-4 on cells (human, UniProt Q96NY8 32-510)
T1 construct: also called Nectin-4 receptor
T1 sequence: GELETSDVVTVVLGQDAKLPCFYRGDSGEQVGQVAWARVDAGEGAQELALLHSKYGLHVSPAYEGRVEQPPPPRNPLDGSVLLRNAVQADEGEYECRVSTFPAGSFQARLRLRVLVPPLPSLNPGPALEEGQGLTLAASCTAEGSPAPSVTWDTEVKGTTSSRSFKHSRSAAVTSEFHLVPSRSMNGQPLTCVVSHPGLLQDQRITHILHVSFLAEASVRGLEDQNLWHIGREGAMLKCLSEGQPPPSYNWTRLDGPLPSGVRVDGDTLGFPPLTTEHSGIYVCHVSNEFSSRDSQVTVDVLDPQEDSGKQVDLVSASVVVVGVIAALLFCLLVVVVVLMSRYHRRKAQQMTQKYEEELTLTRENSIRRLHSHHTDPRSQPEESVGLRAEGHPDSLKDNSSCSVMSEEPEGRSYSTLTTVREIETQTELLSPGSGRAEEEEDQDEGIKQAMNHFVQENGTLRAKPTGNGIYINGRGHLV
Assay: flow cytometry, NCI-H1781 cells (low endogenous nectin-4)
Assign % of enfortumab (Average Max MFI) to each entry below.
Answers are plain numbers, in %.

[[record]]
binder = "Ab5 (antibody, human IgG1, kappa, L234A L235A, V domains shown, Unconjugated antibody; also called Antibody 5; nectin-4 antibody Ab5) VH: QVQLVQSGAEVKKPGASVKVSCKASGYTFTSYYVHWVRQAPGQGLEWMGIINPSIISTSYAQKFQARVTMTRDTSTSTVYMELSSLRSEDTAVYYCARGLNFDAFDIWGQGTLVTVSS VL: DIQLTQSPSFLSASVGDRVTITCRASQGISSYLAWYQQKPGKAPKLLIYAASTLQSGVPSRFSGSGSGTEFTLTISSLQPEDFATYYCQQLNNYPFTFGQGTKVEIKR"
property_measured = "% of enfortumab (Average Max MFI)"
experimental_value = 102


Query block: What does the record list as % of enfortumab (Average Max MFI) for Ab6 (antibody, human IgG1, lambda, L234A L235A, V domains shown, Unconjugated antibody; also called Antibody 6; nectin-4 antibody Ab6) VH: QVQLVQSGAEVKKPGASVKVSCKASGYTFTGYYMHWVRQAPGQGLEWMGIINPSGGSTTYAQKFQGRVTMTRDTSTSTVYMELSSLRSEDTAVYYCARGRLGTYFDYWGQGTLVTVSS VL: SYVLTQPPSVSVAPGQTARITCGGNNIGSKSVHWYQQKPGQAPVLVVYDDSDRPSGIPERFSGSNSGNTATLTISRVEAGDEADYYCQVWDRSSDQVVFGGGTKLTVLG ?
Result block: 93.8
